Assay name: ATG_ERE_CIS: Attagene CIS-FACTORIAL HepG2 Assay for Estrogen Response Element (ERE) (AID 2282940)
Test conditions: HepG2 ERE cis-reporter, Attagene RNA transcript; actives raise or lower the signal
Active and inactive are the calls of the source. Rule for the calls: active = hit-call score of the fitted dose curve at least 0.9, where 1 is the maximum; inactive = score below 0.9.
Select the matching outcome among active, inactive

Request: Field: outcome | Entry: "FC(F)(F)C(F)(F)C(F)(F)C(F)(F)C(F)(F)C(F)(F)C(F)(F)I"
Result: active

Request: Could you check what this test reported for "FC(F)(F)C(F)(F)C(F)(F)C(F)(F)C(F)(F)C(F)(F)CCS" ?
Result: active

Request: # lookup: test call for CC(C)=CCCC(C)CCOC(=O)C(C)C (configuration not stated)
Result: inactive

Request: // return assay outcome for "OCC(F)(F)C(F)(F)C(F)(F)C(F)(F)C(F)(F)C(F)(F)F"
Result: inactive

Request: Identify the outcome logged in this assay for the compound shown: "CS(C)(=O)=O"
Result: inactive

Request: What did the test return for "FC(F)(F)C(F)(F)CNCC(F)(F)C(F)(F)F" ?
Result: inactive

Request: For "OCC(F)(F)C(F)(F)C(F)(F)F" , which call appears in the assay record?
Result: inactive

Request: Each compound tested received a call. Report the one for "CCc1c(Br)c(Br)c(Br)c(Br)c1Br" .
Result: inactive

Request: Each compound tested received a call. Report the one for "C=CC(=O)OCC(F)(F)C(F)(F)C(F)(F)C(F)(F)C(F)(F)C(F)(F)C(F)(F)F" .
Result: active

Request: GET /call?item= "OCC(F)(F)C(F)(F)C(F)(F)C(F)(F)C(F)(F)C(F)F" returns the recorded outcome of this test.
Result: active

Request: Just curious, what result did "CC/C=C\CCOC(C)=O" get here?
Result: inactive

Request: Please let me know the test result on file for "CCCCCCCCCCCCCCCC[N+](C)(C)Cc1ccccc1" .
Result: inactive

---

Assay name: CCTE_Shafer_MEA_dev_per_burst_spike_percent: CCTE's Neural Network Formation Assay for Percent of Spikes in a Burst, Shafer Lab (AID 2284032)
Active and inactive are the calls of the source. Rule for the calls: active = hit-call score of the fitted dose curve at least 0.9, where 1 is the maximum; inactive = score below 0.9.
Allowed answers: true for active, false for inactive

Request: Assay result, entry "O=C(O)C(F)(F)C(F)(F)C(F)(F)C(F)(F)C(F)(F)C(F)(F)C(F)(F)C(F)(F)C(F)(F)C(F)F" — outcome?
Result: false

Request: Call for entry "O=C(O)C=C(C(F)(F)F)C(F)(F)F" :
Result: false

Request: For "C=CC(=O)OCC(F)(F)C(F)(F)C(F)(F)C(F)(F)COC(=O)C=C" , which call appears in the assay record?
Result: true

Request: Please share the test call associated with "OCC(F)(F)C(F)(F)C(F)(F)C(F)(F)C(F)(F)C(F)F" .
Result: false

Request: Hey, what did the test say about "O=C(O)C(F)(F)C(F)(F)C(F)F" ?
Result: false

Request: Can you look up the reported call for "Cc1ccc(S(=O)(=O)OCC(F)(F)C(F)(F)C(F)(F)C(F)(F)C(F)(F)C(F)F)cc1" for me?
Result: false

Request: Each compound tested received a call. Report the one for "FC(F)(F)C(F)(F)CNCC(F)(F)C(F)(F)F" .
Result: false

Request: Could you check what this test reported for "OCC(F)(F)C(F)(F)C(F)(F)F" ?
Result: false

Request: Tell me the assay call for "OC[C@@H](O)[C@@H](O)[C@H](O)[C@@H](O)CO" please.
Result: false

Request: Hey, what did the test say about "O=S(=O)(OCCOC(F)(F)F)C(F)(F)F" ?
Result: false

Request: Write down the call the test reported for this compound. Item: "OCC(F)(F)C(F)(F)C(F)(F)C(F)F"
Result: false

Request: Which outcome was entered for the compound "O=C(O)C(F)(F)C(F)(F)C(F)(F)F" in this test?
Result: false

Request: Look up the recorded call for "NC(=O)C(F)(F)C(F)(F)C(F)(F)C(F)(F)F" in this test.
Result: false
